- tested_on: Human CDK12 wt/CycK (Homo sapiens (Human))
- Sequence (Q9NYV4 whole entry): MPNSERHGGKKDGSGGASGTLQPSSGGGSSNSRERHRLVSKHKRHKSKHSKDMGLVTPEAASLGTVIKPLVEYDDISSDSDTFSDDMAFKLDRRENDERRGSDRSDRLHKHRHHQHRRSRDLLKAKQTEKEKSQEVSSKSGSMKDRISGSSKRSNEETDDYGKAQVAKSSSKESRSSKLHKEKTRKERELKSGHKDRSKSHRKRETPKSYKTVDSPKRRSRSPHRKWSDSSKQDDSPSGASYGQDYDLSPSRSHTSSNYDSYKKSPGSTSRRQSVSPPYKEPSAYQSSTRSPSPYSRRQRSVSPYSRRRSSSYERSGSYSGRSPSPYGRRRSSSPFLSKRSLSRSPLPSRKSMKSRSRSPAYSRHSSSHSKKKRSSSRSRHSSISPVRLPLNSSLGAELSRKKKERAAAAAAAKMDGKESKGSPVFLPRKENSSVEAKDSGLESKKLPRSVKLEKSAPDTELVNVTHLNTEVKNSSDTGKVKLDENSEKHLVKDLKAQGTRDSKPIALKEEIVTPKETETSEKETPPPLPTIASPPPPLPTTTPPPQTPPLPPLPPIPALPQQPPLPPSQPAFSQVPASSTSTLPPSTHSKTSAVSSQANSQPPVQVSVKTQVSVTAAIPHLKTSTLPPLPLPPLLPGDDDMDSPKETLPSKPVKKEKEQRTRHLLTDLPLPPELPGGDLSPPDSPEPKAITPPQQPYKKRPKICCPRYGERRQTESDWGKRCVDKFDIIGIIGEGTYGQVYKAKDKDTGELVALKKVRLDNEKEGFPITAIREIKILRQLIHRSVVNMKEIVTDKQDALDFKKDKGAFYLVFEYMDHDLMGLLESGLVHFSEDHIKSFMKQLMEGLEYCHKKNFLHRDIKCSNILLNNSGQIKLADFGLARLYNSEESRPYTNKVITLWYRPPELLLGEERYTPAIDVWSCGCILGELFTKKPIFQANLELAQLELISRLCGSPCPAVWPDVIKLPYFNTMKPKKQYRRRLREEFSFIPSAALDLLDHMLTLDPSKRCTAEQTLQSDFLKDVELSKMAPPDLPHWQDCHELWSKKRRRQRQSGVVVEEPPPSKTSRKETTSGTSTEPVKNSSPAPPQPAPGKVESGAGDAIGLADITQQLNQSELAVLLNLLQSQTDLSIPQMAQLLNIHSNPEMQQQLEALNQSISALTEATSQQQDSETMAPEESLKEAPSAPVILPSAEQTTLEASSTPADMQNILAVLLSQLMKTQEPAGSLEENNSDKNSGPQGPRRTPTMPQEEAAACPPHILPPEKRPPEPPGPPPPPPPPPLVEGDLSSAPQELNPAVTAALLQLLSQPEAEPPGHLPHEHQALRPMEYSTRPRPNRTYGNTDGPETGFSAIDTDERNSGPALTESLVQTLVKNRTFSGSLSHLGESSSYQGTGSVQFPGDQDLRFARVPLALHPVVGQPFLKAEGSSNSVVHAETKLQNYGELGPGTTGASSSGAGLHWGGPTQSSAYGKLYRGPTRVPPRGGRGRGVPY
- Sequence (O75909 whole entry partner): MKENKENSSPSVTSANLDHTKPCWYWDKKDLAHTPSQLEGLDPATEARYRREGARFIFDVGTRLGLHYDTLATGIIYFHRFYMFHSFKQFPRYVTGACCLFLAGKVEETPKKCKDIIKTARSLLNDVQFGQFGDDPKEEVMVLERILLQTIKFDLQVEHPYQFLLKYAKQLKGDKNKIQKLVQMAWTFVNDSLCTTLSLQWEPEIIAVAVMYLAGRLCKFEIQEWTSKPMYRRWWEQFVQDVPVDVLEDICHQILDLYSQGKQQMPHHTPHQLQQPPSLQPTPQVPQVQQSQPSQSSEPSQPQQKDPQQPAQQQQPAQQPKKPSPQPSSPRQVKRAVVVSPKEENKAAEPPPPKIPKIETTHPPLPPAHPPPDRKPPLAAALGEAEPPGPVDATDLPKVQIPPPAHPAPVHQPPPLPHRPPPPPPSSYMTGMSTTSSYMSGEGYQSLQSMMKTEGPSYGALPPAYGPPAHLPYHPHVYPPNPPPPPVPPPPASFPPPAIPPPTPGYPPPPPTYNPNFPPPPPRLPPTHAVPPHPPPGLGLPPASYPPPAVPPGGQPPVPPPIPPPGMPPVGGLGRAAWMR
- assay_remarks: Radiometric protein kinase assay (33PanQinase Activity Assay), CDK12
- Format: biochemical
- experimental_setup: read-out: CKD12 Biochemical Potency IC50
pIC50: −log10 of the molar value.
recorded_metric: pIC50

Could you share which pIC50 value was measured for c1ccc(-c2ccc(CNc3cc(NCC4CCNCC4)nc4c(C5CC5)cnn34)cc2)nc1 ?
6.13

And the next one, COc1cccnc1-c1ccc(CNc2cc(NC[C@H]3CCNC[C@@H]3O)nc3c(C(C)C)cnn23)cc1 ?
7.05

What would you report for c1ccc(-c2ccc(CNc3cc(OC4CNC4)nc4c(C5CC5)cnn34)cc2)nc1 ?
7.49

Would you kindly repeat that for N#Cc1cnn2c(NCc3ccc(-c4ccccn4)cc3)cc(NC[C@H]3CCNC[C@@H]3O)nc12 ?
7.44

Also check COc1cc(CNc2cc(NC[C@H]3CCNC[C@@H]3O)nc3c(C4CC4)cnn23)ccc1-c1ccccn1
6.63

[A] O[C@H]1CNCC[C@@H]1CNc1cc(NCc2ccc(-c3ncccc3OC(F)(F)F)cc2)n2ncc(C3CC3)c2n1
[B] c1ccc(-c2ccc(CNc3cc(O[C@@H]4CCCNC4)nc4c(C5CC5)cnn34)cc2)nc1
[C] c1ccc(-c2ccc(CNc3cc(N4CCNC5(CC5)C4)nc4c(C5CC5)cnn34)cc2)nc1
[D] NC1CN(c2cc(NCc3ccc(-c4ccccn4)cc3)n3ncc(C4CC4)c3n2)C1
[E] CC(=O)N1CCC(CNc2cc(NCc3ccc(-c4ccccn4)cc3)n3ncc(C4CC4)c3n2)CC1
Would you mind ranking these compounds by ascending pIC50? Would you mind listing the labels in the order requested?
E, D, A, B, C

[P] O[C@H]1CNCC[C@@H]1CNc1cc(NCc2ccc(-c3ccccn3)cn2)n2ncc(C3CC3)c2n1
[Q] CCc1cnn2c(NCc3ccc(-c4ccccc4)cc3F)cc(NC[C@H]3CCNC[C@@H]3O)nc12
Lab note: check whether P or Q has the lower measured pIC50. Mark your selection by writing its label.
Q

[A] O=C1CC(CNc2cc(NCc3ccc(-c4ccccn4)cc3)n3ncc(C4CC4)c3n2)CCN1 (stereo not shown)
[B] N#Cc1cnn2c(NCc3ccc(-c4ccccc4)cc3)cc(N[C@H]3CCNC3)nc12
Returns: the argument ( A or B ) having the larger pIC50. Give the chosen item's label as your response.
B
(B: 7.64, A: 6.18)

* * *

- tested_on: Human CDK12 wt/CycK (Homo sapiens (Human))
- assay_remarks: Radiometric protein kinase assay (33PanQinase Activity Assay), CDK12
- Format: biochemical
- experimental_setup: read-out: CKD12 Biochemical Potency IC50
recorded_metric: IC50 (nM)

Here are 5 compounds together with their reported answers.
Looking for the measured IC50 of Cn1cc(-c2ccccn2)nc1CNc1cc(NC[C@H]2CCNC[C@@H]2O)nc2c(C3CC3)cnn12 [PPA-024] , can you help?
6

// query: O[C@H]1CNCC[C@@H]1CNc1cc(NCc2ccc(-c3cscn3)cc2)n2ncc(C3CC3)c2n1 [PPA-035]
52

Ok, now O[C@H]1CNCC[C@@H]1CNc1cc(NCc2ccc(-c3ccccc3)cc2)n2ncc(Cl)c2n1 [PPA-083]
32

Would you kindly repeat that for c1ccc(-c2ccc(CNc3cc(N[C@H]4CCNC4)nc4c(C5CC5)cnn34)cc2)nc1 [PPA-037] ?
28

Entry c1ccc(-c2ccc(CNc3cc(O[C@H]4CCNC4)nc4c(C5CC5)cnn34)cc2)nc1 [PPA-065] please
29

[P] O[C@H]1CNCC[C@@H]1CNc1cc(NCc2cn(-c3ccccn3)cn2)n2ncc(C3CC3)c2n1 [PPA-025]
[Q] FC1(CNc2cc(NCc3ccc(-c4ccccn4)cc3)n3ncc(C4CC4)c3n2)CCNCC1 [PPA-062]
API: POST /compare with P and Q ; response names the item with higher IC50. Kindly give the label for the entry you pick.
Q
(Q: 459 nM, P: 78 nM)
